# measurement-protocol: solvent given as SMILES
# conditions-used: in ClCCl
observation-type: fluorescence lifetime (ns)

- compound: "[O-][n+]1c(-c2ccccc2)cc(N2CCOCC2)nc1/C=C/c1ccccc1"
  fluorescence lifetime / ns: 4.76
- compound: "CCCCn1c(-c2ccc(-c3nnc(-c4ccc5ccccc5c4)o3)cc2)nc2c3ccccc3c3ccccc3c21"
  fluorescence lifetime / ns: 1.78
- compound: "COc1cc(OC)c2cc(C#N)c(=N)oc2c1"
  fluorescence lifetime / ns: 2.4
- compound: "CCCC(=O)c1c2c(c(C(=O)CCC)c3c1OC(CC(=O)OC)(C(=O)OC)O3)OCO2"
  fluorescence lifetime / ns: 25.1
- compound: "CC1=C(c2ccccc2)C(C)=[N+]2C1=C(c1c(-c3ccccn3)nc3ccccn13)c1c(C)cc(C)n1[B-]2(F)F"
  fluorescence lifetime / ns: 6.2

(A) CCC(CC)COC1=CC2=C3c4cc(OCC(CC)CC)c(-c5ccccc5)n4[B-](F)(F)[n+]4nnn(c43)[B-](F)(F)[N+]2=C1c1ccccc1
(B) Cc1ccc(-c2cc(C)[o+]c(C)c2)cc1
Pick the one with the larger fluorescence lifetime: A vs B Refer to your chosen item by its label in the answer.
B
(B: 3.3 ns, A: 0.95 ns)

----------
# measurement-protocol: solvent given as SMILES
# conditions-used: in ClCCl
observation-type: fluorescence lifetime (ns)

The examples below pair each entry with its known result.
- compound: "CC(C)(C)c1ccc2c(c1)c1cc(C(C)(C)C)ccc1n2-c1ccc(C#Cc2ccc3c4ccc(C#Cc5ccc(/C=C(/C#N)C(=O)O)cc5)cc4n(-c4ccc(C(F)(F)F)cc4)c3c2)cc1"
  quantity-unit: "ns"
  fluorescence lifetime: 1.27
- compound: "CC(C)c1cccc(C(C)C)c1N1C(=O)c2cccc3c(Oc4ccc(Cl)cc4)ccc(c23)C1=O"
  quantity-unit: "ns"
  fluorescence lifetime: 3.95
- compound: "CC(C)(C)c1ccc2c(c1)-c1c3c(c4c5c1-c1cc(C(C)(C)C)ccc1OB5Oc1ccc(C(C)(C)C)cc1-4)-c1cc(C(C)(C)C)ccc1OB3O2"
  quantity-unit: "ns"
  fluorescence lifetime: 3.96
- compound: "COCCOCCOCCOCC(COCCOCCOCCOC)Oc1cc(/C=C/c2ccc(/C=C(\\C#N)c3ccncc3)cc2)c(OC(COCCOCCOCCOC)COCCOCCOCCOC)cc1/C=C/c1ccc(/C=C(\\C#N)c2ccncc2)cc1"
  quantity-unit: "ns"
  fluorescence lifetime: 1.7
- compound: "N#Cc1cnc(-c2c3ccccc3c(-c3ncc(C#N)cn3)c3ccccc23)nc1"
  quantity-unit: "ns"
  fluorescence lifetime: 5.6

(I) Oc1ccc2ccccc2c1-c1nc2c(c3c1-c1ccccc1CC3)-c1ccccc1CC2
(II) CCN(CC)c1ccc2c(c1)oc(=O)c1c(C)nc3c(cnn3-c3ccccc3)c12
Pick the one with the larger fluorescence lifetime: I vs II Refer to your chosen item by its label in the answer.
II
(II: 2.72 ns, I: 0.97 ns)

(P) O=P1(c2ccccc2)c2ccccc2-c2sc3ccccc3c21 (stereo not given)
(Q) O=Cc1ccc2c(c1)c1ccccc1n2-c1ccc(-c2ccc(-n3c4ccccc4c4cc(C=O)ccc43)cc2)cc1
(R) C1=CC2C=c3c(cc4cccc5cc6ccccc6c3c45)C3=c4ccccc4=CC(=C1)C32 (stereo not given)
(S) CC(C)(C)c1ccc(-c2nc3c4ccccc4c4ccccc4c3n2-c2ccc(C(C)(C)C)cc2)cc1
Arrange these 4 compounds in increasing order of fluorescence lifetime. Respond with the label ranking, as requested.
Q, R, S, P
